# Test system: recombinant human HDACs
# measurement-notes: HDAC enzymatic assay (LabChip capillary electrophoresis)
# Format: biochemical
# test-context: 5 nM HDAC enzyme, 1 uM substrate, 5 hours pre-incubation, 17 hours reaction at 25°C; isoform not given
Provide the reported IC50 of each item.

[Q] Using the record for Nc1ccc(-c2ccc(F)cc2)nc1NC(=O)N1Cc2ccc(CN3CCCC3)cc2C1 , state its measured IC50.
[A] 100 to 500 nM

[Q] Using the record for CN1CCN(c2cnc3c(c2)CN(C(=O)Nc2nc(-c4ccc(F)cc4)ccc2N)C3)CC1 , state its measured IC50.
[A] 100 to 500 nM

[Q] Using the record for Nc1ccc(-c2ccco2)nc1NC(=O)N1Cc2ccncc2C1 , state its measured IC50.
[A] 500 to 5000 nM

[Q] Using the record for Nc1ccc(-c2cccnc2)nc1NC(=O)N1Cc2ccc(CO)cc2C1 , state its measured IC50.
[A] > 5000 nM

[Q] Using the record for CN1CC=C(c2ccc3c(c2)CN(C(=O)Nc2nc(-c4ccc(F)cc4)ccc2N)C3)CC1 , state its measured IC50.
[A] 100 to 500 nM

[Q] Using the record for CN1CCC(c2cnc3c(c2)CN(C(=O)Nc2nc(-c4ccc(F)cc4)ccc2N)C3)CC1 , state its measured IC50.
[A] 100 to 500 nM

[Q] Using the record for COCc1ccc2c(c1)CN(C(=O)Nc1nc(-c3ccc(F)cc3)ccc1N)C2 , state its measured IC50.
[A] 100 to 500 nM

[Q] Using the record for Nc1ccc(-c2ccc(F)cc2)nc1NC(=O)N1Cc2cc(N3CCC3)cnc2C1 , state its measured IC50.
[A] 100 to 500 nM

[Q] Using the record for Nc1ccc(-c2cccnc2)nc1NC(=O)N1CC2(CCNCC2)C1 , state its measured IC50.
[A] > 5000 nM

[Q] Using the record for CN1CC(CC(=O)Nc2nc(-c3ccc(F)cc3)ccc2N)C1 , state its measured IC50.
[A] > 5000 nM

[Q] Using the record for Nc1ccc(-c2ccc(F)cc2)nc1NC(=O)N1Cc2cccnc2C1 , state its measured IC50.
[A] 100 to 500 nM

[Q] Using the record for Nc1ccc(-c2ccc(F)cc2)nc1NC(=O)N1Cc2ccncc2C1 , state its measured IC50.
[A] 100 to 500 nM

[Q] Using the record for CN1CC=C(c2cnc3c(c2)CN(C(=O)Nc2nc(-c4cccs4)ccc2N)C3)CC1 , state its measured IC50.
[A] 100 to 500 nM

[Q] Using the record for Nc1ccc(-c2cccs2)nc1NC(=O)N1Cc2cc(CN3CCCC3)cnc2C1 , state its measured IC50.
[A] 100 to 500 nM

[Q] Using the record for Nc1ccc(-c2ccc(F)cc2)nc1NC(=O)N1CCN(C(=O)[C@@H]2C[C@H]2c2ccccc2)CC1 (stereo in doubt) , state its measured IC50.
[A] 500 to 5000 nM

[Q] Using the record for CN1CCC(c2cnc3c(c2)CN(C(=O)Nc2nc(-c4cccs4)ccc2N)C3)CC1 , state its measured IC50.
[A] 100 to 500 nM

[Q] Using the record for CN1CC(Cn2cc3c(n2)CN(C(=O)Nc2nc(-c4ccc(F)cc4)ccc2N)C3)C1 , state its measured IC50.
[A] 100 to 500 nM

[Q] Using the record for CN1CCCC2(CCN(C(=O)Nc3nc(-c4cccnc4)ccc3N)C2)C1 (stereo not drawn) , state its measured IC50.
[A] > 5000 nM

[Q] Using the record for CN(C)[C@H]1[C@@H]2CN(C(=O)Nc3nc(-c4ccc(F)cc4)ccc3N)C[C@@H]21 , state its measured IC50.
[A] > 5000 nM

[Q] Using the record for Nc1cn(-c2ccccc2)nc1NC(=O)C1CCNCC1 , state its measured IC50.
[A] > 5000 nM

[Q] Using the record for CN(C)CCN1CC2CN(C(=O)Nc3nc(-c4ccc(F)cc4)ccc3N)CC2C1 (stereo not drawn) , state its measured IC50.
[A] 500 to 5000 nM

[Q] Using the record for Nc1ccc(-c2ccc(F)cc2)nc1NC(=O)[C@H]1[C@@H]2CN(C3COC3)C[C@@H]21 (stereo in doubt) , state its measured IC50.
[A] > 5000 nM

[Q] Using the record for Nc1ccc(-c2ccc(F)cc2)nc1NC(=O)N1Cc2cnc(C3CC3)cc2C1 , state its measured IC50.
[A] 100 to 500 nM

[Q] Using the record for COC[C@@H]1[C@H]2CN(C(=O)Nc3nc(-c4ccc(F)cc4)ccc3N)C[C@@H]12 , state its measured IC50.
[A] 500 to 5000 nM

[Q] Using the record for CN1CC(N2C[C@@H]3[C@H](C2)[C@H]3C(=O)Nc2nc(-c3ccc(F)cc3)ccc2N)C1 (stereo in doubt) , state its measured IC50.
[A] > 5000 nM

[Q] Using the record for Nc1ccc(-c2cccnc2)nc1NC(=O)N1CCCC1 , state its measured IC50.
[A] > 5000 nM

[Q] Using the record for Nc1ccc(-n2cccn2)nc1NC(=O)C1CCN(Cc2ccccc2F)CC1 , state its measured IC50.
[A] > 5000 nM

[Q] Using the record for Nc1ccc(-c2ccccc2)nc1NC(=O)C1CCN(Cc2cccnc2)CC1 , state its measured IC50.
[A] > 5000 nM

[Q] Using the record for Nc1ccc(-c2ccco2)nc1NC(=O)N1CC2CC(N3CC(F)C3)CC2C1 (stereo not drawn) , state its measured IC50.
[A] > 5000 nM

[Q] Using the record for CN(C)Cc1cc2c(cn1)CN(C(=O)Nc1nc(-c3ccc(F)cc3)ccc1N)C2 , state its measured IC50.
[A] 100 to 500 nM

[Q] Using the record for CN1CCC(c2ccc3c(c2)CN(C(=O)Nc2nn(-c4ccccc4)cc2N)C3)CC1 , state its measured IC50.
[A] 100 to 500 nM

[Q] Using the record for COCc1ccc2c(c1)CN(C(=O)Nc1nc(-c3cccnc3)ccc1N)C2 , state its measured IC50.
[A] 500 to 5000 nM

[Q] Using the record for COc1cccc(CN2CCCC3(CCN(C(=O)Nc4nc(-c5ccc(F)cc5)ccc4N)C3)C2)c1 (stereo not drawn) , state its measured IC50.
[A] > 5000 nM
